src = patent US20240174727A1

- tgt: T1, rat NPRA (rat, UniProt P18910 29-1057)
- T1 sequence (looked up): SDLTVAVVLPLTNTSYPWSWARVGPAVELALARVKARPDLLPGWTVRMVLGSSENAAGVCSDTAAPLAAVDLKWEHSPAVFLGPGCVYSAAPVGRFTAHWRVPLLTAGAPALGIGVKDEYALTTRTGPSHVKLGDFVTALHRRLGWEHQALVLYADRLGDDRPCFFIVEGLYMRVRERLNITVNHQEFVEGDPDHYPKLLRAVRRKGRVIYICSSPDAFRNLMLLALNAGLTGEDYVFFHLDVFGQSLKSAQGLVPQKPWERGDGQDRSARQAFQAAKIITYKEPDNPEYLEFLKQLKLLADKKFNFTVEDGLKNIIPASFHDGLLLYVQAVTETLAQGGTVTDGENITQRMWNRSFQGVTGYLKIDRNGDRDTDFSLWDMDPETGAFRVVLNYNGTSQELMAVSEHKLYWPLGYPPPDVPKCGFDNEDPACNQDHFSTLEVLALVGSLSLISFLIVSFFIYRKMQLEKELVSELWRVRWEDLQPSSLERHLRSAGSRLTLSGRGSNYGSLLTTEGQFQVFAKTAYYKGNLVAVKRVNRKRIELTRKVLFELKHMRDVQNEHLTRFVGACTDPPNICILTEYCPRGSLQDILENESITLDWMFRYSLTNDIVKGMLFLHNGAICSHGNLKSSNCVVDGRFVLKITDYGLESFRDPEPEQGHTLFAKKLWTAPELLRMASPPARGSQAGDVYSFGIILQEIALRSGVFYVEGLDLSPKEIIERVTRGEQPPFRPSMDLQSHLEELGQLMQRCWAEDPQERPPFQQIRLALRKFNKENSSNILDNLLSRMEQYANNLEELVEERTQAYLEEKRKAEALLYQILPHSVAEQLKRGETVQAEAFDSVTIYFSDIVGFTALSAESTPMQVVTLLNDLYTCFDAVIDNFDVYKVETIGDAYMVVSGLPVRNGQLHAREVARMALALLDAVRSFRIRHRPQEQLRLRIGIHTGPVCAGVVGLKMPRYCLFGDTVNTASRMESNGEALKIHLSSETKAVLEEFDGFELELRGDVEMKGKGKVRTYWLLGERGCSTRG
- assay.explanation: cell-based or functional assay
Numbered stars: 1 amine (or outer) side, 2 acyl side, 3 side chain; on linkers, the order of the positions; unused ones are H or OH. Bridge positions count the residues as written; N and C are the ends. Square brackets hold non-standard residues; d marks the D form. * marks the point of attachment. thioacetal = thioacetal linkage between two cysteines (intrachain bond at the bracketed Cys); C20 diacid = O=C(O)CCCCCCCCCCCCCCCCCCC(=O)*; C16 diacid = O=C(O)CCCCCCCCCCCCCCC(=O)*; γGlu = O=C(O)[C@H](CCC(=O)[*:2])N[*:1]; βAla = NCCC(=O)O
quantity: cGMP Assay (EC50, pM) w/Casein
Give bare numbers, in pM.

Some entries whose results are on file:
{"binder": "{C20 diacid}-[γGlu]EKEKEKGEK[βAla]RSSCFGGRIDRIGHYSGLGCPSFRHGGKSSGAPPPS-NH2 (bridge 15-31 via thioacetal) [Example 74]", "test.value": 5820}
{"binder": "{C16 diacid}-[γGlu]EKEKEKGEK[βAla]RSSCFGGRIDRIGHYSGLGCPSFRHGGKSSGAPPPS-NH2 (bridge 15-31 via thioacetal) [Example 73]", "test.value": 26000}
{"binder": "{C20 diacid}-[γGlu]EKEKEKGEKGRSSCFGGRIDRIGHYSGLGCPSLRHGGPSSGAPPPS-NH2 (disulfide 15-31) [Example 51]", "test.value": 909}
{"binder": "SXRRSSCFGGRIDRIGHQSGLGCPSFRHGGKSSGAPPPS (HOOC-(CH2)18-CO-(γGlu)-EKEKEKG-(AEEA)4-S-4Pal-RRSS[CFGGRIDRIGHQSGLGC]PSFRHGGKSSGAPPPS-NH2; thioacetal linkage between the bracketed Cys) [Example 83]", "test.value": 16700}

We now examine a further binder.
Could you tell me which cGMP Assay (EC50, pM) w/Casein is on file for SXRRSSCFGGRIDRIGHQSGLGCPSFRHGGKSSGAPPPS (HOOC-(CH2)18-CO-(γGlu)-EKEKEKG-(AEEA)6-S-4Pal-RRSS[CFGGRIDRIGHQSGLGC]PSFRHGGKSSGAPPPS-NH2; thioacetal linkage between the bracketed Cys) [Example 86] ?
17900
